test system: CAKI-1 renal; assay: NCI-60 one-dose screen, 48 h (100 = growth as untreated, 0 = no growth, -100 = all killed); conditions: 10 µM unless noted
The panel holds about 83,000 compounds, 20% with a hit somewhere; the sample as a whole holds those more often. Active and inactive are the calls of the source. How the source made its calls: active means growth percent below 10; inactive means the rest.

# compound, growth
data = [
    ("COc1ccc2c3c(c4ccccc4cc13)C(=O)N(CCN(C)CCN)C2=O", "3.18% (active)"),
    ("C=C(C)[C@@H]1CC[C@]2(C(=O)N3CCN(C)CC3)CC[C@]3(C)[C@H](CC[C@@H]4[C@@]5(C)C/C(=C/c6ccc(C(F)(F)F)cc6)C(=O)C(C)(C)[C@@H]5CC[C@]43C)[C@@H]12", "68.7% (inactive)"),
    ("O=S(=O)(NCCNc1cc(-c2cn(-c3ccccc3)nc2-c2cccc(O)c2)ccn1)c1ccc(Br)cc1", "43.2% (inactive)"),
    ("Brc1ccc(Cn2nnnc2-c2ccn(-c3ccccc3)n2)cc1", "58.2% (inactive)"),
    ("COc1cc2c3c(c4c5ccccc5[nH]c4c2c(OC)c1OC)C(=O)N(O)C3=O", "36% (inactive)"),
    ("O=C(NC1=CC(=O)c2ccccc2C1=O)c1ccccc1", "29.6% (inactive)"),
    ("Nc1c(C(=O)Nc2cccc(Cl)c2)sc2ncc(Cl)cc12", "82.6% (inactive)"),
    ("O=C(NO)c1ccc(Cn2c(=O)n(-c3ccccc3)c(=O)c3ccccc32)cc1", "56.9% (inactive)"),
    ("CC(C)/C=C/CC[C@](C)(O)[C@H]1CC[C@]2(C)[C@@H]1CC[C@@H]1[C@@]3(C)C/C(=C/c4cccc(C(F)(F)F)c4)C(=O)C(C)(C)[C@@H]3CC[C@]12C", "64.3% (inactive)"),
    ("O=S(=O)(NCCNc1cc(-c2cn(-c3ccccc3)nc2-c2cccc(O)c2)ccn1)c1cccc(F)c1", "44.3% (inactive)"),
    ("CC1(C)c2ccccc2C(=O)C1(Br)Cc1ccccc1 (configuration not stated)", "50.5% (inactive)"),
    ("O=C(CCCCCn1c2ccccc2c2c3c(c4c5ccccc5[nH]c4c21)C(=O)N(O)C3=O)N1CCOCC1", "-22.9% (active)"),
    ("COc1ccc(-c2nc(Nc3ccc(-c4nc5ccccc5[nH]4)cc3)nc(N3CCOCC3)n2)cc1", "-56.6% (active)"),
    ("C=C(C)[C@@H]1CC[C@]2(C)CC[C@]3(C)[C@H](CC[C@@H]4[C@@]5(C)CCCNC(C)(C)[C@@H]5CC[C@]43C)[C@@H]12", "75.3% (inactive)"),
    ("CN1CCN(CC#CCn2c3c(c4ccccc42)C[C@]2(C)[C@H]4CC[C@@H]5[C@H]6[C@H]7OC(=O)[C@@]6(CCC7(C)C)CC[C@@]5(C)[C@]4(C)CC[C@H]2C3(C)C)CC1", "52.4% (inactive)"),
    ("CCN(CC)CCCCCCNc1ccnc2cc(Cl)ccc12", "84.2% (inactive)"),
    ("Cn1c2ccccc2c2c3c(c4c5cccnc5[nH]c4c21)C(=O)N(O)C3=O", "24% (inactive)"),
    ("O=C(O)c1cccc2c1Cc1cc([N+](=O)[O-])ccc1-2", "89.5% (inactive)"),
    ("Cc1cc2nc3c4cc(Cl)ccc4n(CCN(C)C)c3nc2cc1C", "-7.17% (active)"),
    ("CCSc1sc(-c2ccc(C)cc2)nc1[P+](c1ccccc1)(c1ccccc1)c1ccccc1", "-9.03% (active)"),
    ("CC(C)(C)n1cc(-c2ccnc(NCCCNS(=O)(=O)c3ccc(Cl)cc3)c2)c(-c2cccc(F)c2)n1", "77.9% (inactive)"),
    ("COc1cccc(-c2nn(-c3ccccc3)cc2-c2ccnc(NCCCNS(=O)(=O)c3cccc(F)c3)c2)c1", "32.4% (inactive)"),
    ("COc1ccc(-c2cc(-c3cccs3)n(N=O)c(=O)c2C#N)cc1", "102% (inactive)"),
    ("C/C(=N\\NC(=O)C(C)SC(C)C(=O)N/N=C(\\C)c1cccnc1)c1cccnc1 (configuration not stated)", "97.7% (inactive)"),
    ("N#Cc1c(-c2ccco2)nc2c(c(-c3ccccc3)nn2-c2ccccc2)c1-c1ccc(O)cc1", "58.9% (inactive)"),
    ("COc1ccc(-n2c(/C=C/c3ccc(O)c(OC)c3)cc(/C=C/c3ccc(O)c(OC)c3)nc2=O)cc1", "87.4% (inactive)"),
    ("CCCC1CCCCN1C(=O)OCC(C)C (configuration not stated)", "90.2% (inactive)"),
    ("O=Cc1nc2ccccc2[nH]1", "93.2% (inactive)"),
    ("CC(=O)O[C@H]1CC[C@]2(C)[C@H]3CC=C4[C@@H]5[C@H](C)[C@@H](C)CC[C@]5(C(=O)NCCNCCNCCN)CC[C@@]4(C)[C@]3(C)CC[C@H]2C1(C)C", "55.8% (inactive)"),
    ("C=C(C)[C@@H]1CC[C@]2(C(=O)N3CCCNCC3)CC[C@]3(C)[C@H](CC[C@@H]4[C@@]5(C)CCC(=O)C(C)(C)[C@@H]5CC[C@]43C)[C@@H]12", "67.8% (inactive)"),
    ("O=[N+]([O-])c1ccc(N/N=C(\\C(=N/Nc2ccc([N+](=O)[O-])cc2[N+](=O)[O-])c2ccccc2)c2ccccc2)c([N+](=O)[O-])c1", "81.1% (inactive)"),
    ("CC(=O)O[C@@H]1CCN2C(=O)N(C)c3ccccc3[C@@H]2C1", "95.3% (inactive)"),
    ("Cn1cc(-c2nc(-c3cn(C)c4ncccc34)cs2)c2ccccc21", "28.3% (inactive)"),
    ("CC(CNc1nc(Nc2ccc(Cl)c(Cl)c2)nc(C(Cl)(Cl)Cl)n1)N(C)C (configuration not stated)", "-19.1% (active)"),
    ("Cn1cc(-c2csc(-c3c[nH]c4ccccc34)n2)c2cccnc21", "15.7% (inactive)"),
    ("CC1(C)NC2=C(C(Nc3cccnc3)N1)C(c1ccc([N+](=O)[O-])cc1)C(C(=O)c1ccc(N=[N+]=[N-])cc1)O2 (configuration not stated)", "102% (inactive)"),
    ("Cc1cc2nc3c4cc(N)ccc4n(CCN(C)C)c3nc2cc1C", "-3% (active)"),
]

----------
test system: MCF7 breast; assay: NCI-60 one-dose screen, 48 h (100 = growth as untreated, 0 = no growth, -100 = all killed); details: 10 µM unless noted
About 83,000 compounds went through this panel and 20% of them were active in at least one assay; those are over-represented in the sample as a whole.
experimentalEndpoint: growth (%)

# compound, experimentalEndpoint, measurementUnits, measurement
data = [
    ("c1ccc2[nH]c(-c3cc(-c4ccc5c(c4)OCO5)n[nH]3)nc2c1", "growth", "%", 59.2),
    ("COc1ccc2c(c1)C(Br)=C(CCO)C2c1ccccc1 (stereo not given)", "growth", "%", 58.8),
    ("COc1cc(/C=N/Nc2ncnc3c2c(C)nn3-c2ccc(F)cc2)ccc1O", "growth", "%", 85.3),
    ("CSc1ccc(N(C)c2nc(C)nc3c2CCC3)cc1", "growth", "%", 16),
    ("COc1ccc2c(c1)c(-c1nc(-c3cn(C)c4ncccc34)cs1)cn2CCN", "growth", "%", 16.6),
    ("CC(C)(C)c1ccc(OCCCCCCCN2CCNCC2)cc1", "growth", "%", -20.1),
    ("NC1(N)C=CC2=C(C=C1)C1(N)C3=C(C=CC(N)(N)C=C3)N2C2(N)C3=C(C=CC(N)(N)C=C3)N1C1=C2C=CC(N)(N)C=C1", "growth", "%", 76.2),
    ("COc1cc(/C=N/NC(=S)NNC(=S)NC2CCCCC2)cc(OC)c1OC", "growth", "%", 92.4),
    ("c1csc(-c2nc(-c3cc4ccccc4c(N4CCOCC4)n3)cs2)c1", "growth", "%", 80.5),
    ("CCCCC[C@H]1C/C=C2/C(=O)C(Cl)=C[C@@H]2C/C=C\\CCCC(=O)O[C@@H](CCCCC)C/C=C2/C(=O)C(Cl)=C[C@@H]2C/C=C\\CCCC(=O)O1", "growth", "%", -42.1),
]

----------
test system: HOP-62 NSCLC; test: NCI-60 one-dose screen, 48 h (100 = growth as untreated, 0 = no growth, -100 = all killed); conditions: 10 µM unless noted
This is part of a sample that, as a whole, favours compounds with a hit. Of some 83,000 tested, about 20% had one in any assay.
experimentalEndpoint: growth (%)

# compound, experimentalEndpoint, measurement
data = [
    ("COc1ccc2c(c1)c(-c1nc(-c3c[nH]c4ncccc34)cs1)cn2CCN", "growth", 58.3),
    ("CCSc1ncnc2c1ncn2C1OC(CO)C(O)C1O (centres undefined)", "growth", 21.1),
    ("CC(C)=CCC[C@](C)(O)[C@H]1CC[C@]2(C)[C@@H]1CC[C@@H]1[C@@]3(C)C/C(=C/c4cccc([N+](=O)[O-])c4)C(=O)C(C)(C)[C@@H]3CC[C@]12C", "growth", 97.4),
    ("CNC(=O)c1cc(Oc2ccc3nc(NC(=O)Nc4ccc(Cl)cc4)sc3c2)ccn1", "growth", 6.54),
    ("CC(C)c1cc(C(=O)O)c(O)c(C(C)C)c1.CC(C)c1cc(C(=O)O)c(O)c(C(C)C)c1.[Mn]", "growth", 112),
    ("CC1(C)c2ccccc2C(=O)C1(Br)Cc1ccccc1 (centres undefined)", "growth", 95),
    ("Cn1cc(-c2csc(-c3cn(CCCN4CCCCC4)c4ccc(Br)cc34)n2)c2cccnc21", "growth", -56.5),
    ("c1cnc2[nH]cc(-c3csc(-c4cn(CCCN5CCCCC5)c5ccccc45)n3)c2c1", "growth", 54.6),
    ("COc1ccc(-c2nc(Nc3ccc(-c4nc5ccccc5[nH]4)cc3)nc(N3CCOCC3)n2)cc1", "growth", -27.3),
]
